The reported numbers originate from patent US8754115B2.

system: Septoria nodorum; assay: Test C: preventive spray on wheat seedlings, visual disease rating (Septoria glume blotch); type: in vivo; conditions: asterisk: 40 ppm test suspension
Marks after values point to notes of the source that are not given here.
measurement-type: Test C rating (% disease control)

Some solved entries appear below for comparison.
**Q:** Given the molecule Cc1nn(C)c(-c2ccc(F)cc2Cl)c1Nc1ccc(F)cc1F [compound 49] , what is its reported Test C rating (% disease control)?
**A:** 0* %

**Q:** Same question, Cc1nn(C)c(-c2c(Cl)cncc2Cl)c1C(=O)c1ccc(F)cc1Cl [compound 96] this time
**A:** 0* %

**Q:** Same question, Cc1nn(C)c(-c2c(F)cccc2F)c1C(Cl)c1ccc(F)cc1Cl (stereo not shown) [Compound 84] this time
**A:** 99* %

Now, please, on to the next molecule.
**Q:** Given the molecule Cc1nn(C)c(-c2ccc(F)cc2Br)c1C(=O)c1ccc(F)cc1F [compound 73] , what is its reported Test C rating (% disease control)?
**A:** 0* %

====

system: Puccinia recondite f. sp. tritici; test: Test E2: preventive spray on wheat seedlings, visual disease rating (wheat leaf rust); format: in vivo; conditions: no asterisk: standard test suspension, not 40 ppm
# Lookup of reported Test E2 rating (% disease control) keyed by entry
Express your answer in %, writing the number without its unit.

Some solved entries appear below for comparison.
**Q:** Given the compound `Cc1nn(C)c(-c2ccc(F)cc2F)c1Oc1ccc(C#N)cc1Cl` , what is its reported Test E2 rating (% disease control)?
**A:** 73

**Q:** Same question, Cn1nc(Cl)c(C(O)c2ccc(F)cc2Br)c1-c1c(F)cccc1F (stereo not drawn) this time
**A:** 100

**Q:** Same question, Cc1nn(C)c(-c2c(F)cccc2F)c1C(O)c1c(F)cc(F)cc1F (stereo not drawn) this time
**A:** 100

**Q:** Same question, Cc1nn(C)c(-c2c(F)cc(C#N)cc2F)c1C(O)c1ccc(F)cc1F (stereo not drawn) this time
**A:** 100

**Q:** Same question, Cc1nn(C)c(-c2c(F)cccc2F)c1C(SC#N)c1ccc(F)cc1Cl (stereo not drawn) this time
**A:** 100

Further cases:
**Q:** Given the compound Cc1nn(C)c(-n2ccnc2Cl)c1C(O)c1ccc(F)cc1F (stereo not drawn) , what is its reported Test E2 rating (% disease control)?
**A:** 99

====

tested on: Septoria nodorum; test: Test C: preventive spray on wheat seedlings, visual disease rating (Septoria glume blotch); format: in vivo; settings: asterisk: 40 ppm test suspension
Marks after values point to notes of the source that are not given here.
measurement-type: Test C rating (% disease control)

Some solved entries appear below for comparison.
**Q:** Given the compound COc1ccc(C(O)c2c(OC)nn(C)c2-c2c(F)cccc2Cl)c(F)c1 (stereo not drawn) , what is its reported Test C rating (% disease control)?
**A:** 0* %

**Q:** Same question, COc1nn(C)c(-c2c(F)cccc2Cl)c1C(O)c1c(F)ccc(F)c1Cl (stereo not drawn) this time
**A:** 0* %

**Q:** Same question, COc1nn(C)c(-c2c(F)cccc2Cl)c1C(O)c1ccc(F)cc1C (stereo not drawn) this time
**A:** 99* %

Now, please, on to the next compound.
**Q:** Given the compound COc1ccc(C(O)c2c(OC)nn(C)c2-c2c(F)cccc2Cl)c(Cl)c1 (stereo not drawn) , what is its reported Test C rating (% disease control)?
**A:** 60* %

====

Tested on: Puccinia recondite f. sp. tritici
Experiment: Test E2: preventive spray on wheat seedlings, visual disease rating (wheat leaf rust)
Assay type: in vivo
Conditions: no asterisk: standard test suspension, not 40 ppm
From the text: General protocol for preparing test suspensions for Tests A-F: the test compounds were first dissolved in acetone in an amount equal to 3% of the final volume and then suspended at the desired concentration (in ppm) in acetone and purified water (50/50 mix by volume) containing 250 ppm of the surfactant Trem® 014 (polyhydric alcohol esters). […]
measurement-type: Test E2 rating (% disease control) (%)
Express your answer in %, writing the number without its unit.

Some solved entries appear below for comparison.
**Q:** Given the compound Cc1nn(C)c(-c2c(F)cc(F)cc2F)c1C(=O)c1ccc(F)cc1Cl [compound 59] , what is its reported Test E2 rating (% disease control)?
**A:** 80

**Q:** Same question, Cc1nn(C)c(-c2ccccc2Br)c1C(=O)c1ccc(F)cc1Cl [compound 78] this time
**A:** 79

**Q:** Same question, Cc1nn(C)c(-c2c(F)cccc2Cl)c1C(O)c1c(Cl)cc(Cl)cc1Cl (centres unmarked) [compound 55] this time
**A:** 100

**Q:** Same question, Cn1nc(Cl)c(C(O)c2ccc(F)cc2Cl)c1-c1c(F)cccc1Cl (centres unmarked) [compound 135] this time
**A:** 100

Further cases:
**Q:** Given the compound Cn1nc(Cl)c(C(O)c2ccc(F)cc2Br)c1-c1c(F)cccc1Cl (centres unmarked) [compound 134] , what is its reported Test E2 rating (% disease control)?
**A:** 100

====

# Lookup of reported Test C rating (% disease control) keyed by entry
test system: Septoria nodorum; experiment: Test C: preventive spray on wheat seedlings, visual disease rating (Septoria glume blotch); type: in vivo; conditions: asterisk: 40 ppm test suspension
Marks after values point to notes of the source that are not given here.

Some solved entries appear below for comparison.
**Q:** Please tell me: Test C rating (% disease control) of Cc1nn(C)c(-c2ccc(F)cc2Cl)c1Nc1ccc(F)cc1Br [compound 58] , system Septoria nodorum?
**A:** 0* %

**Q:** Same question, Cc1nn(C)c(-c2c(F)cccc2F)c1C(F)c1ccc(Cl)cc1Cl (stereo not drawn) [Compound 92] this time
**A:** 94* %

**Q:** Same question, Cc1nn(C)c(-c2ccc(F)cc2F)c1C(O)c1ccc(F)cc1Cl (stereo not drawn) [compound 71] this time
**A:** 73* %

**Q:** Same question, Cc1nn(C)c(-c2c(F)cccc2Cl)c1C(F)c1c(F)cc(F)cc1F (stereo not drawn) [Compound 75] this time
**A:** 87* %

**Q:** Same question, Cc1nn(C)c(-c2ccc(F)cc2Br)c1C(=O)c1ccc(F)cc1Cl [compound 83] this time
**A:** 0* %

**Q:** Same question, Cc1nn(C)c(-c2c(F)cccc2F)c1C(O)c1ccc(F)cc1Cl (single isomer, unassigned) [compound 86] this time
**A:** 99* %

**Q:** Same question, COc1nn(C)c(-c2c(F)cccc2Cl)c1C(O)c1c(F)ccc(F)c1F (stereo not drawn) [compound 145] this time
**A:** 0* %

**Q:** Same question, COc1cc(F)c(C(O)c2c(C)nn(C)c2-c2ccc(F)cc2Cl)c(F)c1 (stereo not drawn) [compound 20] this time
**A:** 0* %

Now, please, on to the next molecule.
**Q:** Please tell me: Test C rating (% disease control) of Cc1nn(C)c(-c2ccc(F)cc2Cl)c1Nc1ccc(Cl)cc1Cl [compound 44] , system Septoria nodorum?
**A:** 0* %

====

test system: Puccinia recondite f. sp. tritici; experiment: Test E2: preventive spray on wheat seedlings, visual disease rating (wheat leaf rust); type: in vivo; conditions: no asterisk: standard test suspension, not 40 ppm
measurement-type: Test E2 rating (% disease control)
Please don't drop the unit; write it after the number.

**Q:** Given the compound Cc1cc(F)ccc1C(O)c1c(C)nn(C)c1-c1c(F)cccc1F (stereo not shown) , what is its reported Test E2 rating (% disease control)?
**A:** 99%

**Q:** Same question, Cc1nn(C)c(-c2c(F)cc(F)cc2F)c1C(O)c1ccc(F)cc1F (stereo not shown) this time
**A:** 100%

**Q:** Same question, Cc1nn(C)c(-c2c(Cl)cccc2Cl)c1C(O)c1ccc(Cl)cc1 (stereo not shown) this time
**A:** 79%

Further cases:
**Q:** Given the compound COc1nn(C)c(-c2c(F)cc(F)cc2F)c1C(O)c1ccccc1F (stereo not shown) , what is its reported Test E2 rating (% disease control)?
**A:** 100%

**Q:** Same question, Cc1nn(C)c(-c2c(F)cccc2Cl)c1C(C)(O)c1ccc(F)cc1F (stereo not shown) this time
**A:** 100%

**Q:** Same question, COc1nn(C)c(-c2ccc(F)cc2Cl)c1C(O)c1ccc(F)cc1Cl (stereo not shown) this time
**A:** 99%

**Q:** Same question, Cc1nn(C)c(-c2ccc(F)cc2Cl)c1C(O)c1ccc(F)cc1Cl (stereo not shown) this time
**A:** 100%

**Q:** Same question, COc1cc(F)c(C(O)c2c(C)nn(C)c2-c2c(F)cccc2Cl)c(F)c1 (stereo not shown) this time
**A:** 100%

====

test system: Puccinia recondite f. sp. tritici; experiment: Test E2: preventive spray on wheat seedlings, visual disease rating (wheat leaf rust); assay type: in vivo; details: no asterisk: standard test suspension, not 40 ppm
# Lookup of reported Test E2 rating (% disease control) keyed by entry
Express your answer in %, writing the number without its unit.

Some solved entries appear below for comparison.
**Q:** Given the compound Cc1nn(C)c(-c2c(F)cccc2F)c1Nc1ccc(F)cc1F [compound 64] , what is its reported Test E2 rating (% disease control)?
**A:** 55

**Q:** Same question, Cc1nn(C)c(-c2ccccc2Br)c1C(O)c1ccc(F)cc1Cl (single isomer, unassigned) [compound 80] this time
**A:** 99

**Q:** Same question, Cn1nc(Br)c(C(O)c2ccc(F)cc2F)c1-c1c(F)cccc1Cl (stereo not drawn) [compound 131] this time
**A:** 100

**Q:** Same question, Cc1nn(C)c(-c2c(F)cccc2Br)c1C(O)c1ccc(F)cc1Cl (stereo not drawn) [compound 94] this time
**A:** 100

**Q:** Same question, Cc1nn(C)c(-c2c(F)cccc2Cl)c1C(=O)c1ccc(Cl)cc1Cl [compound 27] this time
**A:** 0

Now, please, on to the next compound.
**Q:** Given the compound CCOc1nn(C)c(-c2c(F)cccc2F)c1C(O)c1ccc(F)cc1Cl (stereo not drawn) [compound 127] , what is its reported Test E2 rating (% disease control)?
**A:** 91
